# System: S. aureus N315 mutant Mt50DscA.11
# protocol text: Susceptibility (MIC) of Disciformycin A-resistant mutant
# Type: cell-based
# condition parameters: Staphylococcus aureus
Overview of reported MIC across a group of compounds:
The response must be a number in µg/mL with no trailing unit.

| compound | property | result |
| --- | --- | --- |
| CO[C@H]1/C=C/O[C@@]2(C)Oc3c(C)c(O)c4c(O)c(c(/C=N/N5CCN(C)CC5)c(O)c4c3C2=O)NC(=O)/C(C)=C\C=C\[C@H](C)[C@H](O)[C@@H](C)[C@@H](O)[C@@H](C)[C@H](OC(C)=O)[C@@H]1C [rifampicin, reference compound] | MIC | 0.001 |

Now look at this entry.
# input Tell me reported MIC for C/C=C(/C)[C@H]1C/C=C(\C)[C@@H](O[C@H]2O[C@H](CO)[C@@H](O)[C@@H]2O)[C@H](OC(=O)CC(C)C)C(=O)/C=C/[C@H](C)C(=O)O1 [Compound 2, disciformycin B] , tested with S. aureus N315 mutant Mt50DscA.11.
# output 32
